Here the recorded BMC any abnormality is given for each entry.
Tested on: Danio rerio embryo/larva
Assay: BMC any abnormality; max tested concentration (log10 uM): 2; higher = less potent
Conditions: exposure: 6-8 hpf to 5 dpf, scored at 6 dpf

# compound, BMC any abnormality
rows = [
    ("OCC(F)(F)C(F)(F)C(F)(F)C(F)(F)C(F)(F)C(F)(F)CO", "41.3 µM"),
    ("O=C(O)CCC(F)(F)C(F)(F)C(F)(F)C(F)(F)C(F)(F)C(F)(F)F", "8.2 µM"),
    ("O=C(O)C(F)(F)C(F)(F)C(F)(F)C(F)(F)C(F)(F)C(F)(F)C(F)(F)C(F)(F)F", "25.5 µM"),
    ("N=C(N)C(F)(F)C(F)(F)C(F)(F)C(F)(F)C(F)(F)C(F)(F)C(F)(F)F", "19.5 µM"),
    ("OC(C(F)(F)F)(C(F)(F)F)C(O)(C(F)(F)F)C(F)(F)F", "1.94 µM"),
    ("O=S(=O)(OCC(F)(F)F)C(F)(F)C(F)(F)C(F)(F)C(F)(F)F [2,2,2-Trifluoroethyl perfluorobutanesulfonate]", "29.4 µM"),
    ("OCC(F)(F)C(F)(F)C(F)(F)C(F)(F)C(F)(F)C(F)(F)C(F)(F)C(F)(F)CO [1H,1H,10H,10H-Perfluorodecane-1,10-diol]", "4.08 µM"),
    ("C=CC(=O)OCC(F)(F)C(F)(F)C(F)(F)C(F)(F)COC(=O)C=C [1H,1H,6H,6H-Perfluorohexane-1,6-diol diacrylate]", "1.52 µM"),
]
